# Tested on: P. berghei ookinete development
# COND: read-out: Pb Ookinete development assay IC50; dose response confirmation
IC50 strictly less than 800 nM = yes. Otherwise no.

Ask: Dear colleague, could you confirm whether IC50 of Cc1cccc(Nc2nc(NCCCCN)nc3cc[nH]c(=O)c23)c1.O=C(O)C(F)(F)F falls below 800 nM? Thanks.
Reply: no

Ask: Is the reported IC50 for Br.CC1(C)N=C(N)N=C(N)N1OCCc1cccc2ccccc12 strictly below 800 nM?
Reply: no

Ask: Item CCCCCCCc1ccc(-c2c(C)[nH]c(C)c(Cl)c2=O)cn1 : IC50 beneath 800 nM, strictly?
Reply: yes

Ask: I wonder whether Br.Cc1ccc(OCCCON2C(=N)N=C(N)NC2(C)C)cc1C has IC50 below 800 nM. Can you tell?
Reply: no

Ask: In the record for Cc1cc2nc(/N=C(\N)NC(=O)NC3CCCCC3)nc(C)c2cc1C , is IC50 less than 800 nM?
Reply: no

Ask: Given Nc1nc(N)c2c(ccc3c2ccn3CCCC(F)(F)F)n1 , is recorded IC50 strictly lower than 800 nM?
Reply: no

Ask: IC50 strictly < 800 nM for this compound? Cc1[nH]c(C)c(-c2ccc(/C=C/c3ccccn3)cc2)c(=O)c1Cl
Reply: no

Ask: Lab note: confirm whether the reported IC50 for this compound is below 800 nM, equality not counting. compound: CC(C)Nc1nc(NC2CCCCC2)nc(N2CCCCCCC2)n1
Reply: no

Ask: Decide: IC50 of Cc1[nH]c(C)c(-c2ccc(OCc3cc(C(F)(F)F)cc(C(F)(F)F)c3)nc2)c(=O)c1Br strictly below 800 nM?
Reply: yes

Ask: Please let me know if Cc1[nH]c(C)c(-c2ccc(OCc3ccc(F)cc3)nc2)c(=O)c1Br shows IC50 below 800 nM.
Reply: yes

Ask: Would you kindly verify if IC50 of CN(C)c1ccc(C=Cc2nc(=O)c3ccccc3o2)cc1 is strictly less than 800 nM?
Reply: yes

Ask: Confirm or reject: IC50 of CN1CCN(c2ccc(Nc3ncc(Cl)c(Nc4cccnc4C(N)=O)n3)cc2)CC1.Cl lies strictly below 800 nM
Reply: yes

Ask: API: query returns whether the compound falls strictly under 800 nM in IC50. Query: CCOC(=O)C(=O)N1c2ccc(OCC)cc2-c2c(ssc2=S)C1(C)C
Reply: no

Ask: Threshold test, IC50 < 800 nM: C=CCn1ccc2c3c(N)nc(N)nc3ccc21
Reply: no

Ask: Determine if COc1cc(-c2nc(C(C)(C)CN)[nH]c2-c2ccncc2)ccc1Br.Cl shows IC50 strictly lower than 800 nM.
Reply: no

Ask: # check: IC50 < 800 nM for Cc1ccc(Cn2c(N3CCC(C(=O)NCc4ccccn4)CC3)nc3ccccc32)cc1
Reply: no

Ask: Problem: For the compound Cl.O=c1cc(NCCCNCc2sc(Br)c(Br)c2Br)[nH]c2ccccc12 , is IC50 under 800 nM?
Reply: no
